// IC50 collected for Fyn (Homo sapiens, UniProt P06241)
assay_metric: IC50

[
  {
    "molecule": "COCCN1CCC(Oc2ccc3c(c2)/C(=C(\\c2cc(F)cc(F)c2)c2nc4ccccc4[nH]2)C(=O)N3)CC1 [Entry 36]",
    "assay_metric": "IC50",
    "value_measured": "< 50 nM"
  },
  {
    "molecule": "CCN1CCC(Oc2ccc3c(c2)/C(=C(\\c2cccc(OC)c2)c2nc4ccccc4[nH]2)C(=O)N3)CC1 [Entry 32]",
    "assay_metric": "IC50",
    "value_measured": "< 50 nM"
  },
  {
    "molecule": "CCN1CCC(Nc2ccc3c(c2)/C(=C(/c2nc(C)c[nH]2)c2ccc(Cl)cc2F)C(=O)N3)CC1 [Entry 118]",
    "assay_metric": "IC50",
    "value_measured": "< 50 nM"
  },
  {
    "molecule": "CCN1CCC(Nc2ccc3c(c2)/C(=C(\\c2ccc(C(F)(F)F)nc2)c2ncc[nH]2)C(=O)N3)CC1 [Entry 68]",
    "assay_metric": "IC50",
    "value_measured": "50 to 500 nM"
  },
  {
    "molecule": "COCCN1CCC(Oc2ccc3c(c2)/C(=C(\\c2cccc(Cl)c2)c2nc4ccccc4[nH]2)C(=O)N3)CC1 [Entry 37]",
    "assay_metric": "IC50",
    "value_measured": "< 50 nM"
  },
  {
    "molecule": "CCN1CCC(Nc2ccc3c(c2)/C(=C(/c2nc(C)c[nH]2)c2ccc(F)cc2F)C(=O)N3)CC1 [Entry 111]",
    "assay_metric": "IC50",
    "value_measured": "< 50 nM"
  },
  {
    "molecule": "CCN1CCC(Nc2ccc3c(c2)/C(=C(\\c2cc(F)cc(F)c2)c2nc4cc(F)ccc4[nH]2)C(=O)N3)CC1 [Entry 62]",
    "assay_metric": "IC50",
    "value_measured": "< 50 nM"
  },
  {
    "molecule": "CCN1CCC(Oc2ccc3c(c2)/C(=C(\\c2cc(F)cc(F)c2)c2nc4ccccc4[nH]2)C(=O)N3)CC1 [Entry 33]",
    "assay_metric": "IC50",
    "value_measured": "< 50 nM"
  },
  {
    "molecule": "CCN1CCC(Nc2ccc3c(c2)/C(=C(/c2ncc[nH]2)c2ccc(C(F)(F)F)cc2F)C(=O)N3)CC1 [Entry 100]",
    "assay_metric": "IC50",
    "value_measured": "< 50 nM"
  }
]
